Exercise: state measured TGI for each of the compounds provided.
Tested on: SF-295 CNS
protocol: NCI tumour cell line growth inhibition, 48 h
Give your result in µM as a bare value.

I am curious: what TGI value has been reported for `Cc1ccc([C@H]2CC(=O)C[C@H](c3ccc(C)cc3)C23C(=O)c2ccccc2C3=O)cc1` ?
51.9

Which TGI is reported for this compound? `COc1ccc(C(=O)COc2cccc(/C=C3\Oc4ccc5ccccc5c4C3=O)c2)cc1`
36.4

For the compound NP(=O)(OCC1=CC(=O)c2ccccc2C1=O)N(CCBr)CCBr (stereo not given) , what TGI is on record?
25.2

Any idea what its TGI is? The compound is `Cc1ccc2nc(Cl)c(/C=N/N3C(=O)/C(=C/c4ccccc4S)N=C3c3ccccc3)cc2c1`
84
